Quick list: normalized growth per entry.
experiment: chemical genetic growth profiling, strain panel (AID 1159580);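 further: tested at 20 µM; growth read once vehicle control cultures reached saturation at 30 °C; 1 = growth at the plate median or of vehicle wells; lower values mean less growth of the strain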; details: S. cerevisiae deletion strains, growth OD, locus YKL193C, strain SDS22, active compounds read low
About 2,000 (36%) of roughly 5,500 compounds were called active. About 18% were inconclusive and are not listed. The list shows a part of the results.
quantity.kind: normalized growth

- COc1ccc(N=C2SCC(c3ccc(C)cc3)=NN2CCO)cc1: 0.975
- C/C(=N/NC(N)=S)c1csc(-c2ccccc2)n1: 0.932
- CN(C)/C=C1\CSc2ccc(Cl)cc2C1=O: 0.938
- O=S(=O)(c1cc(Cl)ccc1Cl)N1CCc2ccccc2C1: 0.971
- O=C(NC(=S)NNc1ncc(C(F)(F)F)cc1Cl)c1cccs1: 0.629
- CCOC(=O)NC(=S)Nc1ccc(C(C)(C)C)cc1NC(=S)NC(=O)OCC: 0.987

* * *

assay: chemical genetic growth profiling, strain panel (AID 1159580); details: S. cerevisiae deletion strains, growth OD, locus YPL241C, strain CIN2, active compounds read low
Among all 5,500 compounds or so, about 2,000 (36%) were called active. Inconclusive results (about 18%) are left out. Some of the results follow.
quantity.kind: normalized growth

* CNC(=S)N/N=C\c1cc(Br)cc(Br)c1O | 0.522 (active)
* O=[N+]([O-])c1cccnc1Oc1ccc(Cl)cc1 | 0.935 (inactive)
* COc1ccc(Br)c(-c2nnc(-c3ccccc3[N+](=O)[O-])o2)c1 | 0.977 (inactive)
* CCOC(=O)c1cnc2n(c1=O)CCS2 | 1.01 (inactive)
* COc1cccc(OC)c1OCCNCC1CSc2ccccc2O1 (configuration not stated) | 1 (inactive)
* O=C(O)C1CC(=O)N(Cc2ccccc2Cl)C1 (configuration not stated) | 1.11 (inactive)
* O=C(O/N=C1/CCCc2[nH]c3ccccc3c21)c1ccc(Cl)cc1Cl | 0.843 (active)
* C[C@@H]1CCC2[C@](C)(CO)[C@@H](O)CC[C@]2(C)[C@@]12CC[C@@](CO)(CCO)O2 (some centres not stated) | 1.01 (inactive)
* COC1=CC(=O)C=C(OC)C1=O | 0.986 (inactive)
* CCOC(=O)c1nnc2cc(C)nn2c1C | 0.986 (inactive)
* CCOC(=O)C1=C(O)C(=O)N(Cc2ccccc2)C1 | 1 (inactive)
* CCn1nc(C(=O)O)c(=O)c2cc3c(cc21)OCO3 | 1.01 (inactive)

* * *

experiment: chemical genetic growth profiling, strain panel (AID 1159580); settings: S. cerevisiae deletion strains, growth OD, locus YDR001C, strain nth1, active compounds read low
About 2,000 (36%) of roughly 5,500 compounds were called active. Not shown: some 18% with an inconclusive outcome. This is one part of the list.
Quick list: normalized growth per entry.
quantity.kind: normalized growth

- CC1(C)S[C@@H]2C(N3C(=O)[C@@H](c4ccccc4)NC3(C)C)C(=O)N2[C@H]1C(=O)O (some centres undefined): 1.01
- Cc1ccccc1N1C(=O)c2cc(S(N)(=O)=O)c(Cl)cc2NC1C (centres undefined): 0.957
- CCC(=O)O[C@]1(C(=O)CCl)[C@@H](C)CC2C3CCC4=CC(=O)C=C[C@]4(C)[C@@]3(F)[C@@H](O)C[C@@]21C (some centres undefined): 1.02
- NC[C@H]1O[C@H](O[C@H]2[C@H](O)[C@@H](O[C@H]3O[C@H](CO)[C@@H](O)[C@H](N)[C@H]3O)[C@H](N)C[C@@H]2N)[C@H](N)[C@@H](O)[C@@H]1O: 0.989
- CC1CCCC(C)N1NC(=O)c1ccc(Cl)c(S(N)(=O)=O)c1 (centres undefined): 1.01
- Cc1ccc(-c2nc3ccc(C)cn3c2CC(=O)N(C)C)cc1: 1.02
- CCCCC(=O)O[C@]1(C(=O)CO)[C@@H](C)CC2C3CCC4=CC(=O)C=C[C@]4(C)[C@@]3(F)C(O)C[C@@]21C (some centres undefined): 0.986
- NS(=O)(=O)c1cc2c(cc1C(F)(F)F)NC(Cc1ccccc1)NS2(=O)=O (centres undefined): 0.98
- CCC(=O)NCC[C@@H]1CCc2ccc3c(c21)CCO3: 1

* * *

test: chemical genetic growth profiling, strain panel (AID 1159580); conditions: S. cerevisiae deletion strains, growth OD, locus YKL203C, strain TOR2, active compounds read low
About 2,000 (36%) of roughly 5,500 compounds were called active. Not shown: some 18% with an inconclusive outcome. The list shows a part of the results.
Threshold-based label: normalized growth under 0.9 gives criterion met, normalized growth not under 0.9 gives criterion not met.

- O=C(NNc1cc(C(F)(F)F)cc(C(F)(F)F)c1)c1cnc2n(c1=O)CCS2: criterion not met
- O=c1[nH][nH]c(=O)n1CCCc1cc2cccc3ccc4cccc1c4c32: criterion not met
- O=c1cc(CSc2ccc(Cl)cc2)c2ccc(O)cc2o1: criterion met
- C/C(=N/NC(N)=S)c1csc(-c2ccccc2)n1: criterion met
- O=C1Nc2ccccc2/C1=C\c1cccc2ccccc12: criterion met
- CC(C)/C(=N/OC(=O)c1ccc([N+](=O)[O-])cc1)c1ccccc1: criterion met

* * *

Quick list: normalized growth per entry.
test: chemical genetic growth profiling, strain panel (AID 1159580);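 further: tested at 20 µM; growth read once vehicle control cultures reached saturation at 30 °C; 1 = growth at the plate median or of vehicle wells; lower values mean less growth of the strain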; details: S. cerevisiae deletion strains, growth OD, locus YNL128W, strain TEP1, active compounds read low
About 2,000 (36%) of roughly 5,500 compounds were called active. Inconclusive results (about 18%) are left out. Some of the results follow.
quantity.kind: normalized growth

• NCC(O)CC(=O)O (stereo not drawn) = 1.02
• CC(=O)OCC(=O)[C@@]1(O)CCC2C3C[C@H](C)C4=CC(=O)C=CC4(C)C3[C@@H](O)CC21C (stereo partly drawn) = 1.01
• CC1(C)O[C@@H]2CC3C4C[C@H](F)C5=CC(=O)CC[C@]5(C)C4[C@@H](O)C[C@]3(C)[C@]2(C(=O)CO)O1 (stereo partly drawn) = 1.02
• NC(=O)c1ccc(OCC(O)CN2CC=C(c3ccc(F)cc3)CC2)cc1 (stereo not drawn) = 1.01
• COP(N)(=O)SC (stereo not drawn) = 0.991
• CN(C)C(=O)C(CCN1CCC(O)(c2ccc(Cl)cc2)CC1)(c1ccccc1)c1ccccc1 = 1.01
• CCCc1nn(C)c2c(=O)[nH]c(-c3cc(S(=O)(=O)N4CCN(C)CC4)ccc3OCC)nc12 = 1.02
• CSCCC(N)C(=O)NC(CC(C)C)C(=O)NC(Cc1ccccc1)C(=O)O (stereo not drawn) = 1.03

* * *

assay: chemical genetic growth profiling, strain panel (AID 1159580);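 further: tested at 20 µM; growth read once vehicle control cultures reached saturation at 30 °C; 1 = growth at the plate median or of vehicle wells; lower values mean less growth of the strain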; conditions: S. cerevisiae deletion strains, growth OD, locus YBR229C, strain ROT2, active compounds read low
The whole screen tested about 5,500 compounds, of which about 2,000 (36%) were called active. Another 18% or so got no clear call; they are omitted. The list shows a part of the results.
quantity.kind: normalized growth

• COC(=O)C(N)CS (stereo not given) = 0.992
• CC(C)(C)NCC(O)COc1cccc2c1C[C@H](O)[C@H](O)C2 (stereo not given in full) = 1.01
• O=C(Nc1ccc(OC(F)(F)F)cc1)Nc1cccc(C(=O)O)c1 = 0.999
• O=[N+]([O-])c1cnc2ccccn12 = 1.01
• c1ccc(-c2ncc3ccccn23)cc1 = 0.988
• Cc1c(C(N)=O)cc([N+](=O)[O-])cc1[N+](=O)[O-] = 0.986
• NC(=O)c1ccccc1O = 0.999
• C[C@@H]1O[C@@H](O[C@H]2CC[C@]3(C=O)C4CC[C@]5(C)[C@@H](C6=CC(=O)OC6)CC[C@]5(O)C4CC[C@]3(O)C2)[C@H](O)[C@H](O)[C@H]1O (stereo not given in full) = 0.962
• CO[C@H]1[C@H](O)[C@@H](O[C@H]2CC[C@]3(C=O)C4CC[C@]5(C)[C@@H](C6=CC(=O)OC6)CC[C@]5(O)C4CC[C@@H]3C2)O[C@@H](C)[C@@H]1O (stereo not given in full) = 0.959
• NC(=O)c1ccc([N+](=O)[O-])cc1Cl = 0.95

* * *

experiment: chemical genetic growth profiling, strain panel (AID 1159580);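 further: tested at 20 µM; growth read once vehicle control cultures reached saturation at 30 °C; 1 = growth at the plate median or of vehicle wells; lower values mean less growth of the strain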; conditions: S. cerevisiae deletion strains, growth OD, locus YDR159W, strain sac3, active compounds read low
Out of some 5,500 compounds screened, about 2,000 (36%) were called active. Roughly 18% stayed inconclusive and do not appear here. This is one part of the list.
quantity.kind: normalized growth

• CC[C@@]1(O)C(=O)OCc2c1cc1n(c2=O)Cc2cc3cc(O)ccc3nc2-1 = 0.946 (inactive)
• O=C(O)c1ccccc1O = 0.976 (inactive)
• CC12CCC(=O)C=C1CCc1ccccc12 (stereo not given) = 0.955 (inactive)
• O=c1c2cc(O)c(O)cc2oc2cc(O)c(C3O[C@H](CO)[C@H](O)[C@@H](O)[C@H]3O)c(O)c12 (stereo not given in full) = 1.11 (inactive)
• COc1c(O)cc2c(c1O)[C@H]1O[C@H](CO)[C@@H](O)[C@H](O)[C@@H]1OC2=O = 1 (inactive)
• Cc1ccc(-c2nc3ccc(C)cn3c2CC(=O)N(C)C)cc1 = 0.96 (inactive)
• CN[C@H]1CC[C@@H](c2ccc(Cl)c(Cl)c2)c2ccccc21 = 1.05 (inactive)
• CC(C)c1cccc(O)c(=O)c1 = 0.0917 (active)
• CC(C)(C)NCC(O)COc1cccc2c1CCCC2=O (stereo not given) = 0.967 (inactive)
• CCn1nc(C(=O)O)c(=O)c2cc3c(cc21)OCO3 = 0.959 (inactive)
• COc1cc(O)c2c(=O)cc(-c3ccc(OC)c(-c4c(O)cc(O)c5c(=O)cc(-c6ccc(O)cc6)oc45)c3)oc2c1 = 1.02 (inactive)
• COc1cc2c(cc1OC)-c1c(oc3cc(O)cc(O)c3c1=O)CO2 = 1.04 (inactive)
• CC1(C)O[C@@H]2CC3C4C[C@H](F)C5=CC(=O)CC[C@]5(C)C4[C@@H](O)C[C@]3(C)[C@]2(C(=O)CO)O1 (stereo not given in full) = 0.939 (inactive)
• CC(C)=CC1C(CO)C1(C)C (stereo not given) = 1.03 (inactive)
• CCCCCC(O)C1C(=O)OC(C)C(O)/C=C/C=C/C=C/C=C/C=C(\C)C(O)CC(O)CC(O)CC(O)CC(O)CC(O)CC1O (stereo not given) = 0.96 (inactive)
• CC[C@@]1(O)C(=O)OCc2c1cc1n(c2=O)Cc2cc3ccccc3nc2-1 = 0.821 (active)
• CC(C)c1cccc(C(C)C)c1O = 0.982 (inactive)
• COc1ccc(-c2cc(=O)c3c(O)cc(O)c(-c4cc(-c5cc(=O)c6c(O)cc(O)cc6o5)ccc4OC)c3o2)cc1 = 1.03 (inactive)
• CC(C)C[C@@H](NC(=O)OCC1c2ccccc2-c2ccccc21)C(=O)O = 1.04 (inactive)
• COC(=O)[C@H]1[C@H]2C[C@H]3c4[nH]c5cc(OC)ccc5c4CCN3C[C@H]2C[C@@H](OC(=O)c2cc(OC)c(OC)c(OC)c2)[C@@H]1OC = 1.02 (inactive)
